study.system: hNudt16E76Q (Homo sapiens, UniProt Q96DE0, E76Q)
Construct: 4xHis (four added histidines); made in house; host or cells: E. coli Rosetta 2 (DE3), pET16b
Sequence (Q96DE0 whole entry E76Q): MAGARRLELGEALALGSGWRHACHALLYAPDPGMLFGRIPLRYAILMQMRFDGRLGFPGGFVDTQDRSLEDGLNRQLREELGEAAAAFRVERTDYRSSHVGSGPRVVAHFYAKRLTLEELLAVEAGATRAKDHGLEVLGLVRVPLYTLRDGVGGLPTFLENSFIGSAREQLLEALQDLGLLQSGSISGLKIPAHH
protocol.text: Thermal stability of hNudt16E76Q with ligands, DSF with SYPRO Orange
Assay type: binding
setup.conditions: 5 µM hNudt16E76Q, 20 mM MgCl2, 0.5 mM ligand, 4× SYPRO Orange
Experimental: The protein thermal stability of wild-type hNudt16 and all tested mutants in the presence of increasing Mg^2+ ion concentration was measured using DSF with SYPRO orange dye on CFX RT-PCR (Bio-Rad, Hercules, CA, USA). This method is based on the change in fluorescence of the SYPRO orange dye in an aqueous buffer, which is strongly quenched, while its binding to the exposed hydrophobic regions of thermally unfolded protein results in an increased fluorescence. […]
Known Tm, DSF (with SYPRO Orange) of a selection of molecules
Provide the reading as a plain figure in °C.

Here's what some known entries look like.
{"molecule": "NC(=O)C1=CN([C@@H]2O[C@H](COP(=O)(O)OP(=O)(O)OC[C@H]3O[C@@H](n4cnc5c(N)ncnc54)[C@H](O)[C@@H]3O)[C@@H](O)[C@H]2O)C=CC1 [NADH, Reduced NAD+]", "readout.value": 64.9}
{"molecule": "Nc1nc2c(ncn2[C@@H]2O[C@H](COP(=O)(O)OP(=O)(O)O)[C@@H](O)[C@H]2O)c(=O)[nH]1 [GDP, Guanosine diphosphate]", "readout.value": 77.0}
{"molecule": "CC(C)(COP(=O)(O)OP(=O)(O)OC[C@H]1O[C@@H](n2cnc3c(N)ncnc32)[C@H](O)[C@@H]1O)[C@@H](O)C(=O)NCCC(=O)NCCS [dpCoA, Dephospho-coenzyme A]", "readout.value": 67.0}
{"molecule": "Nc1nc2c(ncn2[C@@H]2O[C@H](COP(=O)(O)O)[C@@H](O)[C@H]2O)c(=O)[nH]1 [GMP, Guanosine monophosphate]", "readout.value": 68.0}
{"molecule": "Cn1c[n+]([C@@H]2O[C@H](COP(=O)(O)OP(=O)([O-])OP(=O)(O)OC[C@H]3O[C@@H](n4cnc5c(=O)[nH]c(N)nc54)[C@H](O)[C@@H]3O)[C@@H](O)[C@H]2O)c2nc(N)[nH]c(=O)c21 [m^7GpppG]", "readout.value": 72.3}

Moving on to another molecule below.
Enquiry: Fill in Tm, DSF (with SYPRO Orange) for record Nc1ccn([C@@H]2O[C@H](COP(=O)(O)OP(=O)(O)O)[C@@H](O)[C@H]2O)c(=O)n1 [CDP, Cytidine diphosphate]
Return: 65.6

----------
study.system: hNudt16E76Q (Homo sapiens, UniProt Q96DE0, E76Q)
Construct: 4xHis (four added histidines); made in house; host or cells: E. coli Rosetta 2 (DE3), pET16b
protocol.text: Thermal stability of hNudt16E76Q with ligands, DSF with SYPRO Orange
Type: binding
setup.conditions: 5 µM hNudt16E76Q, 20 mM MgCl2, 0.5 mM ligand, 4× SYPRO Orange, relative to apo
Reported ∆Tm, DSF (with SYPRO Orange) values for a set of compounds
// return numeric value only (unit: °C, not printed)

// below: answered compounds
{"compound": "O=c1[nH]cnc2c1ncn2[C@@H]1O[C@H](COP(=O)(O)OP(=O)(O)O)[C@@H](O)[C@H]1O [IDP, Inosine diphosphate]", "∆Tm, DSF (with SYPRO Orange) [°C]": 17.8}
{"compound": "CC(C)(COP(=O)(O)OP(=O)(O)OC[C@H]1O[C@@H](n2cnc3c(N)ncnc32)[C@H](O)[C@@H]1O)[C@@H](O)C(=O)NCCC(=O)NCCS", "∆Tm, DSF (with SYPRO Orange) [°C]": 3.3}

Now for a further compound.
Enquiry: Tell me ∆Tm, DSF (with SYPRO Orange) of `Nc1ncnc2c1ncn2[C@@H]1O[C@H](COP(=O)(O)OP(=O)(O)OC[C@H]2O[C@@H](n3cnc4c(N)ncnc43)[C@H](O)[C@@H]2O)[C@@H](O)[C@H]1O` when tested on hNudt16E76Q (Homo sapiens, UniProt Q96DE0, E76Q).
Return: 1.5

----------
study.system: hNudt16E76Q (Homo sapiens, UniProt Q96DE0, E76Q)
Construct: 4xHis (four added histidines); made in house; host or cells: E. coli Rosetta 2 (DE3), pET16b
protocol.text: Thermal stability of hNudt16E76Q with ligands, DSF with SYPRO Orange
Format: binding
setup.conditions: 5 µM hNudt16E76Q, 20 mM MgCl2, 0.5 mM ligand, 4× SYPRO Orange
property: Tm, DSF (with SYPRO Orange) (°C)
Express it in °C; write the number only.

Worked cases, Tm, DSF (with SYPRO Orange) given:
{"compound": "Nc1ncnc2c1ncn2[C@@H]1O[C@H](COP(=O)(O)OP(=O)(O)OC[C@H]2O[C@@H](n3cnc4c(N)ncnc43)[C@H](O)[C@@H]2O)[C@@H](O)[C@H]1O [AppA]", "study.system": "hNudt16E76Q (Homo sapiens, UniProt Q96DE0, E76Q)", "scale.unit": "°C", "Tm, DSF (with SYPRO Orange)": 65.2}
{"compound": "C[n+]1cn([C@@H]2O[C@H](COP(=O)(O)OP(=O)(O)O)[C@@H](O)[C@H]2O)c2nc(N)[nH]c(=O)c21 [m^7GDP, 7-methylguanosine diphosphate]", "study.system": "hNudt16E76Q (Homo sapiens, UniProt Q96DE0, E76Q)", "scale.unit": "°C", "Tm, DSF (with SYPRO Orange)": 64.4}

Enquiry: Please indicate Tm, DSF (with SYPRO Orange) recorded for C[n+]1cn([C@@H]2O[C@H](COP(=O)([O-])OP(=O)(O)OC[C@H]3O[C@@H](n4cnc5c(=O)[nH]c(N)nc54)[C@H](O)[C@@H]3O)[C@@H](O)[C@H]2O)c2nc(N)[nH]c(=O)c21 [m^7GppG]
Return: 78.2

----------
study.system: hNudt16E76Q (Homo sapiens, UniProt Q96DE0, E76Q)
Construct: 4xHis (four added histidines); made in house; host or cells: E. coli Rosetta 2 (DE3), pET16b
protocol.text: Thermal stability of hNudt16E76Q with ligands, dye-free nanoDSF
Assay type: binding
setup.conditions: 5 µM hNudt16E76Q, 20 mM MgCl2, 0.5 mM ligand
# Tm, nanoDSF (Dye-Free) annotations
I only need the number, in °C, no unit after it.

Record excerpt, results attached:
{"molecule": "Nc1ccn([C@@H]2O[C@H](COP(=O)(O)OP(=O)(O)O)[C@@H](O)[C@H]2O)c(=O)n1 [CDP, Cytidine diphosphate]", "Tm, nanoDSF (Dye-Free) / °C": 66.8}
{"molecule": "C[n+]1cn([C@@H]2O[C@H](COP(=O)([O-])OP(=O)(O)OC[C@H]3O[C@@H](n4cnc5c(=O)[nH]c(N)nc54)[C@H](O)[C@@H]3O)[C@@H](O)[C@H]2O)c2nc(N)[nH]c(=O)c21", "Tm, nanoDSF (Dye-Free) / °C": 80.2}
{"molecule": "Nc1nc2c(ncn2[C@@H]2O[C@H](COP(=O)(O)OP(=O)(O)OC[C@H]3O[C@@H](n4cnc5c(=O)[nH]c(N)nc54)[C@H](O)[C@@H]3O)[C@@H](O)[C@H]2O)c(=O)[nH]1", "Tm, nanoDSF (Dye-Free) / °C": 83.1}
{"molecule": "CC(C)(COP(=O)(O)OP(=O)(O)OC[C@H]1O[C@@H](n2cnc3c(N)ncnc32)[C@H](O)[C@@H]1O)[C@@H](O)C(=O)NCCC(=O)NCCS", "Tm, nanoDSF (Dye-Free) / °C": 68.1}

Enquiry: Please report the measured Tm, nanoDSF (Dye-Free) for Nc1nc2c(ncn2[C@@H]2O[C@H](COP(=O)(O)O)[C@@H](O)[C@H]2O)c(=O)[nH]1 [GMP, Guanosine monophosphate]
Return: 69.1

Enquiry: Dear colleague, please send me the reported Tm, nanoDSF (Dye-Free) for NC(=O)c1ccc[n+]([C@@H]2O[C@H](COP(=O)([O-])OP(=O)(O)OC[C@H]3O[C@@H](n4cnc5c(N)ncnc54)[C@H](O)[C@@H]3O)[C@@H](O)[C@H]2O)c1 [NAD, Nicotinamide adenine dinucleotide] when you can.
Return: 66.1

Enquiry: Given O=c1[nH]cnc2c1ncn2[C@@H]1O[C@H](COP(=O)(O)OP(=O)(O)O)[C@@H](O)[C@H]1O [IDP, Inosine diphosphate] , respond with its Tm, nanoDSF (Dye-Free).
Return: 82.9

Enquiry: In one line, give reported Tm, nanoDSF (Dye-Free) of the entry `NC(=O)C1=CN([C@@H]2O[C@H](COP(=O)(O)OP(=O)(O)OC[C@H]3O[C@@H](n4cnc5c(N)ncnc54)[C@H](O)[C@@H]3O)[C@@H](O)[C@H]2O)C=CC1` .
Return: 67.4

Enquiry: Indicate its recorded Tm, nanoDSF (Dye-Free); the molecule in question is `Cn1c[n+]([C@@H]2O[C@H](COP(=O)(O)OP(=O)([O-])OP(=O)(O)OC[C@H]3O[C@@H](n4cnc5c(=O)[nH]c(N)nc54)[C@H](O)[C@@H]3O)[C@@H](O)[C@H]2O)c2nc(N)[nH]c(=O)c21`
Return: 73.5

Enquiry: Specify Tm, nanoDSF (Dye-Free) for Nc1nc2c(ncn2[C@@H]2O[C@H](COP(=O)(O)OP(=O)(O)O)[C@@H](O)[C@H]2O)c(=O)[nH]1 [GDP, Guanosine diphosphate] and stop.
Return: 78.6

Enquiry: Fill in reported Tm, nanoDSF (Dye-Free) for this entry: `Nc1ncnc2c1ncn2[C@@H]1O[C@H](COP(=O)(O)OP(=O)(O)OC[C@H]2O[C@@H](n3cnc4c(N)ncnc43)[C@H](O)[C@@H]2O)[C@@H](O)[C@H]1O`
Return: 66.8

Enquiry: Kindly indicate its recorded Tm, nanoDSF (Dye-Free). Item: `Nc1nc2c(ncn2[C@@H]2O[C@H](COP(=O)(O)OP(=O)(O)OP(=O)(O)OC[C@H]3O[C@@H](n4cnc5c(=O)[nH]c(N)nc54)[C@H](O)[C@@H]3O)[C@@H](O)[C@H]2O)c(=O)[nH]1`
Return: 76.0

Enquiry: Answer with reported Tm, nanoDSF (Dye-Free) of C[n+]1cn([C@@H]2O[C@H](COP(=O)(O)OP(=O)(O)O)[C@@H](O)[C@H]2O)c2nc(N)[nH]c(=O)c21 [m^7GDP, 7-methylguanosine diphosphate]
Return: 66.7
